Documented inhibition across a set of molecules
assay summary: inhibitors of TNFa-induced NFkB p65 translocation, primary screen, imaging, HUVEC, MLSMR starter and 10KST1 sets (AID 438);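 note: compound added about 3h40 before a 20 min TNFalpha stimulation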;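 for inhibition: signal is the nuclear over cytoplasmic p65 intensity ratio per well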
experimental parameters: HUVEC TNFa-induced p65 nuclear translocation; at 2 µM, stronger effect = higher value, 0% TNFa-plus-vehicle, 100% no-TNFa wells
Calls of active or inactive are those of the source.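 Rule for the calls: active = inhibition above 20% together with a positive visual image hit; inconclusive = visual image hit but inhibition not above 20%; inactive = no visual image hit.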

>  <molecule>
O=C(CSc1ccc2nnc(-c3ccccc3)n2n1)N1CCN(c2ccccc2)CC1

>  <assay value>
0.3% (inactive)

$$$$
>  <molecule>
COc1ccc(C2c3sc(=O)[nH]c3SC3C4CCC(C4)C23)cc1 (stereo unspecified)

>  <assay value>
-7.6% (inactive)

$$$$
>  <molecule>
COC(=O)c1ccccc1NC(=O)C1CC(=O)N(c2ccccc2)C1 (stereo unspecified)

>  <assay value>
-5.8% (inactive)

$$$$
>  <molecule>
COc1cc(OC)c(-c2nn3c(C4CCCCC4)nnc3s2)cc1OC

>  <assay value>
7.2% (inactive)

$$$$
>  <molecule>
COC(=O)CSc1nnc(-c2ccncc2)o1

>  <assay value>
-6.8% (inactive)

$$$$

Note: attention shifts to another entry.
Inquiry: Please list inhibition recorded for the molecule `O=C1CCCCCN1CSc1nc2ccccc2s1`
Reply text: -17.2% (inactive)

----------
assay summary: inhibitors of TNFa-induced NFkB p65 translocation, primary screen, imaging, HUVEC, MLSMR starter and 10KST1 sets (AID 438);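 note: compound added about 3h40 before a 20 min TNFalpha stimulation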
experimental parameters: HUVEC TNFa-induced p65 nuclear translocation; measured here: nuclei count (cytotoxicity indicator), at 2.08 µM
Documented cell count across a set of compounds
Lab note: record the figure alone, no unit after it.

>  <compound>
O=C(CN1CCOCC1)N1CCCc2c1c(=O)oc1ccc(OCc3ccccc3)cc21

>  <cell count>
427

$$$$
>  <compound>
CN(c1ccccc1C(N)=O)S(=O)(=O)c1ccccc1

>  <cell count>
385

$$$$
>  <compound>
CCn1c(SCC(=O)Nc2ccc(Cl)cc2)nnc1C1CC1

>  <cell count>
811

$$$$
>  <compound>
O=C1CCCC(O)=C1C=Nc1ccc2c(c1)oc1ccccc12

>  <cell count>
403

$$$$

Inquiry: Please list cell count recorded for the compound Cc1ccc(S(=O)(=O)N2CCN(S(C)(=O)=O)C2c2ccccc2)cc1 (stereo unspecified)
Reply text: 464

Inquiry: Please list cell count recorded for the compound `O=C(c1ccc(Cl)s1)N1CCN(c2nc3ccccc3s2)CC1`
Reply text: 721

----------
system name: Voltage-gated potassium channel subunit beta-2 (Rattus norvegicus)
assay summary: inhibitors of rat Kvbeta2 reductase activity – biochemical, NADPH fluorescence, primary screen (AID 622);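 note: slope of raw intensity against log time taken from 70 to 1610 s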
experimental parameters: recombinant KvBeta, 4-cyanobenzaldehyde reduction, at 10 µM, stronger effect = higher value
Quick rule for you: fluorescence slope at -0.5 or higher means 1 (yes), lower means 0 (no).

Field: example entries. Status: answers known.
>  <compound>
CC(=O)N1CCN=C1SCc1c(F)cccc1Cl

>  <system name>
Voltage-gated potassium channel subunit beta-2 (Rattus norvegicus)

>  <assigned label>
0 (no)

$$$$
>  <compound>
CCN(C(=O)CCc1nc(-c2ccccc2F)no1)c1cc(OC)ccc1OC

>  <system name>
Voltage-gated potassium channel subunit beta-2 (Rattus norvegicus)

>  <assigned label>
1 (yes)

$$$$

Inquiry: API: above_or_equal(metric=fluorescence slope, cutoff=-0.5) for item `CN(C)CCCn1c(N)c(C#N)c2nc(C#N)c(C#N)nc21`
Reply text: 1 (yes)

Inquiry: API: above_or_equal(metric=fluorescence slope, cutoff=-0.5) for item `CCOC(=O)/C=C1\SCC(=O)N1Cc1ccc(Br)cc1`
Reply text: 1 (yes)

Inquiry: API: above_or_equal(metric=fluorescence slope, cutoff=-0.5) for item `COc1ccccc1OCCSc1nc2ccccc2c(=O)[nH]1`
Reply text: 1 (yes)

Inquiry: API: above_or_equal(metric=fluorescence slope, cutoff=-0.5) for item `CC(=O)NS(=O)(=O)c1ccc(NC(=O)c2ccccc2F)cc1`
Reply text: 1 (yes)

Inquiry: API: above_or_equal(metric=fluorescence slope, cutoff=-0.5) for item `O=C(O)CCNc1nc(-c2ccccc2)nc2ccccc12`
Reply text: 0 (no)

Inquiry: API: above_or_equal(metric=fluorescence slope, cutoff=-0.5) for item `CCOC(=O)N1CCN(C(=O)c2ccc3nc4ccsc4c(=O)n3c2)CC1`
Reply text: 1 (yes)

Inquiry: API: above_or_equal(metric=fluorescence slope, cutoff=-0.5) for item `O=C(OCC(=O)c1ccccc1Br)c1ccccn1`
Reply text: 0 (no)

Inquiry: API: above_or_equal(metric=fluorescence slope, cutoff=-0.5) for item `COc1ccc(C(=O)N2CCN(c3nc4cc(C)ccc4cc3C#N)CC2)c(OC)c1`
Reply text: 0 (no)

Inquiry: API: above_or_equal(metric=fluorescence slope, cutoff=-0.5) for item `CCN(CC(=O)Nc1ccc(S(N)(=O)=O)cc1)S(=O)(=O)c1cc(C)ccc1OC`
Reply text: 1 (yes)

Inquiry: API: above_or_equal(metric=fluorescence slope, cutoff=-0.5) for item `Cc1ccc(NC(=O)CN(c2ccc3c(c2)OCO3)S(=O)(=O)c2c(C)n[nH]c2C)cc1`
Reply text: 1 (yes)

Inquiry: API: above_or_equal(metric=fluorescence slope, cutoff=-0.5) for item `COc1ccccc1N1CCN(c2cc(=O)n(Cc3ccc(F)cc3)c(=O)[nH]2)CC1`
Reply text: 0 (no)

----------
system name: Alpha-2C adrenergic receptor (Homo sapiens)
assay summary: compounds altering alpha2C-coupled GIRK flux – cell-based, HEK293 alpha2C/GIRK1/2, thallium flux, primary screen (AID 624);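 note: slope of fluorescence ratio to pre-addition baseline per second over 15 to 24 s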
experimental parameters: thallium flux BTC fluorescence, at 10 µM, actives lie on both sides
Assign a class from recorded slope; defined classes: group 1 (below 0.005), group 2 (0.005 to below 0.006), group 3 (0.006 or more)

Field: example entries. Status: answers known.
>  <compound>
Cc1ccc(S(=O)(=O)NC(=O)c2cc(C)n(CCCn3ccnc3)c2C)cc1

>  <assigned label>
group 1

$$$$
>  <compound>
COc1cc2c(=O)n(Cc3ccccc3)c(=O)n(CC(=O)NCc3ccco3)c2cc1OC

>  <assigned label>
group 3

$$$$
>  <compound>
COCCNS(=O)(=O)c1cc(F)ccc1OC

>  <assigned label>
group 3

$$$$
>  <compound>
Cc1cc(Cl)ccc1OCC(=O)Nn1c(C)ccc1C

>  <assigned label>
group 1

$$$$
>  <compound>
O=C(CSc1nc2ncccc2[nH]1)Nc1ccc2c(c1)OCCO2

>  <assigned label>
group 3

$$$$

Inquiry: Class for `O=C(c1cccc(C(=O)N2CCN(c3ccccc3)CC2)c1)N1CCN(c2ccccc2)CC1` ?
Reply text: group 2

Inquiry: Class for CCOC(=O)C1CCCN(CCCc2ccccc2)C1 (centres undefined) ?
Reply text: group 2

Inquiry: Class for `CC1(C)CC(=O)c2cnc(NC(=O)CCc3ccccc3)nc2C1` ?
Reply text: group 1

Inquiry: Class for COc1cccc(C2C(C(=O)c3ccc(C)o3)=C(O)C(=O)N2CCCN(C)C)c1 (centres undefined) ?
Reply text: group 3

Inquiry: Class for `COc1ccc(NC(=O)CN2CCCCC2)cc1` ?
Reply text: group 1

----------
Documented inhibition of aggregation across a set of molecules
assay summary: reduction of polyQ htt aggregates in cells – imaging, exon1htt(103Q)mCFP cells, high-content imaging, primary screen (AID 483);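 note: compound exposure lasted 3 days before fixation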
experimental parameters: exon1htt(103Q)mCFP cell line, aggregate imaging, at 2 µM; stronger effect = higher value
Expressed in %, but write only the number.

Inquiry: Please list inhibition of aggregation recorded for the molecule CCCOC(=O)c1[nH]c2c(c1C)C(=O)CC(c1cc(OC)c(OC)c(OC)c1)C2 (stereo unspecified)
Reply text: 2.2

----------
system name: Alpha-2C adrenergic receptor (Homo sapiens) (UniProt P18825)
Sequence (P18825 whole entry, looked up): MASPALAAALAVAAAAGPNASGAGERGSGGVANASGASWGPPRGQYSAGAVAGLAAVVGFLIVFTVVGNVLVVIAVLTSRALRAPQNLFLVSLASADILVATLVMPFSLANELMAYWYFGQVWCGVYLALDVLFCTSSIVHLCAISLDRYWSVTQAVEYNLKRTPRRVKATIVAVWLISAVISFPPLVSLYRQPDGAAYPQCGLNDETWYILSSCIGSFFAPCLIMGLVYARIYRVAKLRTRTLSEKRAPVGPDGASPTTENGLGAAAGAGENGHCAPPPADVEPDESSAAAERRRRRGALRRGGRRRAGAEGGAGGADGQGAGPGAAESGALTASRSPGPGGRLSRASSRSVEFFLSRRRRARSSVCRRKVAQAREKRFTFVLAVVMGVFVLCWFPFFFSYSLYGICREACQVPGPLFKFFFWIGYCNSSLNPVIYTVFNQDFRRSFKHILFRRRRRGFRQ
assay summary: compounds altering alpha2C-coupled GIRK flux – cell-based, HEK293 alpha2C/GIRK1/2, thallium flux, primary screen (AID 624);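 note: slope of fluorescence ratio to pre-addition baseline per second over 15 to 24 s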
experimental parameters: thallium flux BTC fluorescence, at 10 µM, actives lie on both sides
Documented slope across a set of compounds
Lab note: record the figure alone, no unit after it.

Consider the reported slope for these compounds:
>  <compound>
Cn1cc(-c2nc3ccccc3[nH]2)c2ccccc21

>  <assay value>
0.00369

$$$$
>  <compound>
CCc1nc(N)c(C#N)c(-c2ccncc2)c1C

>  <assay value>
0.00327

$$$$
>  <compound>
Cc1cccc(C2CC(c3ccc(Br)cc3)Nc3nc(N)nn32)c1 (stereo not drawn)

>  <assay value>
0.00633

$$$$
>  <compound>
CC(=O)NS(=O)(=O)c1ccc(NC(=O)c2ccccc2F)cc1

>  <assay value>
0.00586

$$$$
>  <compound>
CC(=O)N1CCN(C(C)=O)C1c1ccccc1

>  <assay value>
0.00709

$$$$

Inquiry: Report the value of slope obtained on Alpha-2C adrenergic receptor (Homo sapiens) (UniProt P18825) for COc1cccc2cc(C(=O)C3=C(O)C(=O)N(CCCN4CCOCC4)C3c3ccncc3)oc12 (stereo not drawn) .
Reply text: 0.00372

Inquiry: Report the value of slope obtained on Alpha-2C adrenergic receptor (Homo sapiens) (UniProt P18825) for `CCOC(=O)c1cccc(NC(=O)CS(=O)(=O)Cc2nc(-c3cccc(OC)c3)oc2C)c1` .
Reply text: 0.00568

Inquiry: Report the value of slope obtained on Alpha-2C adrenergic receptor (Homo sapiens) (UniProt P18825) for `CCOC(=O)N1CCC(NC(=O)CSCc2nc(-c3cccc(OC)c3)oc2C)CC1` .
Reply text: 0.00445
